# Target: Human IP6K1 (Homo sapiens, UniProt Q92551)
# Construct: GST (N, cleaved yes); made in house; host or cells: C43 E. coli, pGEX-6P-2
# Sequence (Q92551 whole entry): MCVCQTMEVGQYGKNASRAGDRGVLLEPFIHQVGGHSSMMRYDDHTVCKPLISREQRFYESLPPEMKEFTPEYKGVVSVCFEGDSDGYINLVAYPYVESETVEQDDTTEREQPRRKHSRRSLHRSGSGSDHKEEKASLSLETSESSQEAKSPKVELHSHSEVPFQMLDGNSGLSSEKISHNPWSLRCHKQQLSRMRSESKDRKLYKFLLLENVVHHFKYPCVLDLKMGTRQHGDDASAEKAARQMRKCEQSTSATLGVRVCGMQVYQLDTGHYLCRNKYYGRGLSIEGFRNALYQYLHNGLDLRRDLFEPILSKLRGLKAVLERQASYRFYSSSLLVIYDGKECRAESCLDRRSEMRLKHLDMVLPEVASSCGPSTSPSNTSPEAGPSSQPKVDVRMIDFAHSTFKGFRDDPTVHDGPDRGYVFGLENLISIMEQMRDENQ
# Assay Comment: IP6K1 high-throughput screen of the Sigma LOPAC (ADP-Glo Max, single point);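 note: final compound concentration 10µM in 5% DMSO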
# Format: biochemical
# Measurement Context: LOPAC single-point screen; Z-score relative to plate average and StDev
Note to self: Z-score under -0.6 means met, ties and anything higher get not met.

Answered cases to consult:
- Compound: "Cc1ccc(C(=O)Nc2ccc(S(=O)(=O)O)c3cc(S(=O)(=O)O)cc(S(=O)(=O)O)c23)cc1NC(=O)c1cccc(NC(=O)Nc2cccc(C(=O)Nc3cc(C(=O)Nc4ccc(S(=O)(=O)O)c5cc(S(=O)(=O)O)cc(S(=O)(=O)O)c45)ccc3C)c2)c1 [Suramin hexasodium]"
  Qualitative Label: "met"
- Compound: "CCCCCCCCCCCCCCCCCCOCC(COP(=O)([O-])OCC[N+](C)(C)C)OC (stereo not shown)"
  Qualitative Label: "met"
- Compound: "CNc1ncnc2c1ncn2[C@H]1C[C@H](OP(=O)(O)O)[C@@H](COP(=O)(O)O)O1"
  Qualitative Label: "not met"
- Compound: "Cl.NCC(O)c1cc(O)c(O)cc1F (stereo not shown) [6-Fluoronorepinephrine hydrochloride]"
  Qualitative Label: "met"
- Compound: "CC(=O)Nc1nnc(S(N)(=O)=O)s1 [Acetazolamide]"
  Qualitative Label: "not met"

Consider the record given below.
Does the reported Z-score of `O=C1NCN(c2ccccc2)C12CCN(CCCC(c1ccc(F)cc1)c1ccc(F)cc1)CC2` stay below -0.6? met

====

# Target: Human IP6K1 (Homo sapiens)
# Construct: GST (N, cleaved yes); made in house; host or cells: C43 E. coli, pGEX-6P-2
# Assay Comment: IP6K1 high-throughput screen of the Sigma LOPAC (ADP-Glo Max, single point);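 note: final compound concentration 10µM in 5% DMSO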
# Type: biochemical
# Measurement Context: LOPAC single-point screen; Z-score relative to plate average and StDev
Counter-ions that a name gives are not always drawn.
Assay Endpoint: Z-score
Answers are plain numbers.

- Compound: "COC(=O)[C@@H](N)Cc1ccc(O)c(O)c1.Cl"
  Z-score: -3.394
- Compound: "NC1(C(=O)O)CCc2cc(C(=O)O)ccc21 (centres unmarked)"
  Z-score: -0.9397
- Compound: "O=[N+]([O-])c1ccc(O[C@@H]2O[C@H](CO)[C@@H](O)[C@H](O)[C@H]2F)c([N+](=O)[O-])c1"
  Z-score: -1.048
- Compound: "CCOC(=O)c1ncn2c1CN(C)C(=O)c1cc(F)ccc1-2"
  Z-score: -0.5144
- Compound: "CCOC(=O)C1=C(C)NC(C)=C(C(=O)OC)C1c1cccc(Cl)c1Cl (centres unmarked)"
  Z-score: -0.5191

For the 8 compounds below, give their Z-score values.
1. CNC(=O)[C@H]1O[C@@H](n2cnc3c(NCc4ccc(N)cc4)ncnc32)[C@H](O)[C@@H]1O
2. O=c1c(O)c(-c2ccc(O)cc2O)oc2cc(O)cc(O)c12
3. Clc1cccc(Cl)c1N=C1NCCN1 [Clonidine hydrochloride]
4. Cc1nc(N=Nc2ccc(C(=O)O)cc2)c(COP(=O)(O)O)c(C=O)c1O
5. CN1C2CCC1CC(NC(=O)c1nn(C)c3ccccc13)C2.O=C(O)/C=C\C(=O)O (centres unmarked) [LY-278,584 maleate]
6. Cc1ccc(O)c(N=Nc2ccccc2)n1
7. Cl.NC1(C(=O)O)CCCCC1
8. C[C@]12CC[C@@H]3c4ccc(O)cc4CC[C@H]3[C@@H]1CC[C@@H]2O

-0.8192
-3.363
-0.6131
-0.5226
-0.8854
-1.879
-0.8326
-0.6858

====

# Target: Human IP6K1 (Homo sapiens)
# Construct: GST (N, cleaved yes); made in house; host or cells: C43 E. coli, pGEX-6P-2
# Assay Comment: IP6K1 high-throughput screen of the Sigma LOPAC (ADP-Glo Max, single point);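 note: final compound concentration 10µM in 5% DMSO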
# Type: biochemical
# Measurement Context: Sigma LOPAC single-point screen; Z-score from plate average and StDev
Structures can show the parent of a compound that is named as a salt.
Give measured Z-score for each item. Keep answers brief.
Numbers only.

- Molecule: "Cl.N[C@@H](Cc1cnc[nH]1)C(=O)O [L-Histidine hydrochloride]"
  Z-score: 1.276
- Molecule: "O=C(O)Cc1ccc(O)c(O)c1 [3,4-Dihydroxyphenylacetic acid]"
  Z-score: 0.3844
- Molecule: "O=c1c(-c2ccc(O)cc2)coc2cc(O)ccc12"
  Z-score: 0.4354
- Molecule: "Cn1ccnc1"
  Z-score: 0.4247
- Molecule: "CN(C)C(=O)N=NC(=O)N(C)C [N,N,N ,N -Tetramethylazodicarboxamide]"
  Z-score: 0.4228
- Molecule: "CCCCCCCCCC(=O)N[C@H](CN1CCOCC1)[C@H](O)c1ccccc1.Cl (racemic)"
  Z-score: 0.4756
- Molecule: "CC/C(=C(\\c1ccccc1)c1ccc(OCCN(C)C)cc1)c1ccccc1 [Tamoxifen citrate]"
  Z-score: 0.9433
- Molecule: "Cl.NCCNC(=O)c1ccc(Cl)cc1 [Ro 16-6491 hydrochloride]"
  Z-score: 0.8681

For the 8 molecules below, give their Z-score values.
1. CCn1cc(C(=O)O)c(=O)c2cc3c(cc21)OCO3
2. CN(C)CC/C=C1/c2ccccc2Sc2ccc(Cl)cc21 [Chlorprothixene hydrochloride]
3. O=c1onc2cnc3ccccc3n12
4. CCCN(CCC)CCc1c[nH]c2ccc(C(N)=O)cc12.O=C(O)/C=C\C(=O)O
5. CCN(CC)C(=O)N[C@H]1C[C@@H]2c3cccc4[nH]cc(c34)C[C@H]2N(C)C1 [R(+)-Terguride]
6. COCCCC/C(=N\OCCN)c1ccc(C(F)(F)F)cc1 [Fluvoxamine maleate]
7. CC(C)(C)c1onc(OCP(=O)(O)O)c1CC(N)C(=O)O (centres unmarked)
8. Cc1nc(-c2ccc(-c3ccc(C(=O)N4CCc5cc6c(cc54)C4(CCN(C)CC4)CO6)cc3)c(C)c2)no1.Cl [SB 224289 hydrochloride]

0.9874
0.6347
1.08
1.025
0.6985
0.3617
0.3887
0.5438

====

# Target: Human IP6K1 (Homo sapiens, UniProt Q92551)
# Construct: GST (N, cleaved yes); made in house; host or cells: C43 E. coli, pGEX-6P-2
# Assay Comment: IP6K1 high-throughput screen of the Sigma LOPAC (ADP-Glo Max, single point);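 note: final compound concentration 10µM in 5% DMSO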
# Format: biochemical
# Measurement Context: Sigma LOPAC single-point screen, ADP-Glo Max raw signal per well
Structures can show the parent of a compound that is named as a salt.
Note to self: Raw Signal under 60000 means YES, ties and anything higher get NO.

Answered cases to consult:
- Compound: "CC(C)NCC(O)c1ccc(O)c(O)c1.Cl (racemic) [(±)-Isoproterenol hydrochloride]"
  Target: "Human IP6K1 (Homo sapiens, UniProt Q92551)"
  Qualitative Label: "YES"
- Compound: "OC(CCN1CCCCC1)(c1ccccc1)C1CCCCC1 (stereo not shown) [Trihexyphenidyl hydrochloride]"
  Target: "Human IP6K1 (Homo sapiens, UniProt Q92551)"
  Qualitative Label: "YES"
- Compound: "CCCCCC(O)c1cccc(OCc2ccc3ccccc3n2)c1 (stereo not shown)"
  Target: "Human IP6K1 (Homo sapiens, UniProt Q92551)"
  Qualitative Label: "NO"
- Compound: "COC1=C(OC)C(=O)c2ccccc2C1=O"
  Target: "Human IP6K1 (Homo sapiens, UniProt Q92551)"
  Qualitative Label: "YES"
- Compound: "NC(=O)CC[C@H](N)C(=O)O"
  Target: "Human IP6K1 (Homo sapiens, UniProt Q92551)"
  Qualitative Label: "YES"
- Compound: "Cl.NC1C=CC=C(C(=O)O)C1 (stereo not shown) [Gabaculine hydrochloride]"
  Target: "Human IP6K1 (Homo sapiens, UniProt Q92551)"
  Qualitative Label: "NO"

Does the reported Raw Signal of `CCCc1c(OCCCOc2ccc(OCC(=O)O)cc2)ccc(C(C)=O)c1O` stay below 60000? YES

Does the reported Raw Signal of `NCCCC(=O)O` stay below 60000? NO

Does the reported Raw Signal of `O=S(=O)(c1cccc2cnccc12)N1CCNCC1` stay below 60000? YES

Does the reported Raw Signal of Br.CCCN(CCC)[C@@H]1CCc2cccc(O)c2C1 [R-(+)-8-Hydroxy-DPAT hydrobromide] stay below 60000? YES

Does the reported Raw Signal of C[N+](C)(C)CCCCCC[N+](C)(C)C.[Cl-].[Cl-] [Hexamethonium dichloride] stay below 60000? YES

Does the reported Raw Signal of Cl.Cl.NCCNS(=O)(=O)c1cccc2cnccc12 [H-9 dihydrochloride] stay below 60000? NO

====

# Target: Human IP6K1 (Homo sapiens, UniProt Q92551)
# Construct: GST (N, cleaved yes); made in house; host or cells: C43 E. coli, pGEX-6P-2
# Assay Comment: IP6K1 high-throughput screen of the Sigma LOPAC (ADP-Glo Max, single point);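 note: final compound concentration 10µM in 5% DMSO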
# Assay type: biochemical
# Measurement Context: LOPAC single-point screen, ADP-Glo Max luminescence raw signal per well
Where a name gives a salt, the structure may show the parent alone.
# binarize Raw Signal: threshold 50000 inclusive, high side Criterion met, low side Criterion not met

Answered cases to consult:
- Compound: "C=CCN1CC[C@]2(C)c3cc(O)ccc3C[C@H]1[C@H]2C.Cl [(+)-N-Allylnormetazocine hydrochloride]"
  Qualitative Label: "Criterion met"
- Compound: "Cc1ccc(S(=O)(=O)N[C@@H](CCCCN)C(=O)CCl)cc1.Cl"
  Qualitative Label: "Criterion met"
- Compound: "CN1C(=O)CCS(=O)(=O)C1c1ccc(Cl)cc1 (stereo not drawn) [Chlormezanone]"
  Qualitative Label: "Criterion met"
- Compound: "CN(C(=O)CCCOc1ccc2[nH]c(=O)ccc2c1)C1CCCCC1 [Cilostamide]"
  Qualitative Label: "Criterion met"
- Compound: "Cc1cccc(C(=O)NCN2CCN(c3ccccc3C#N)CC2)c1.O=C(O)/C=C\\C(=O)O [PD 168,077 maleate]"
  Qualitative Label: "Criterion met"
- Compound: "COc1ccc(NC(=O)c2ccc(-c3ccc(-c4noc(C)n4)cc3C)cc2)cc1N1CCN(C)CC1.Cl [GR 127935 hydrochloride]"
  Qualitative Label: "Criterion met"
- Compound: "CCCN1CCC[C@@H]2Cc3nc(N)ncc3C[C@H]21.Cl.Cl [Quinelorane dihydrochloride]"
  Qualitative Label: "Criterion met"
- Compound: "NC12CC3CC(CC(C3)C1)C2 [Amantadine hydrochloride]"
  Qualitative Label: "Criterion met"
- Compound: "CCNC(=O)[C@H]1O[C@@H](n2cnc3c(N)nc(NCCc4ccc(CCC(=O)O)cc4)nc32)[C@H](O)[C@@H]1O.Cl [CGS-21680 hydrochloride]"
  Qualitative Label: "Criterion met"
- Compound: "CC(C)N(CCC(C(N)=O)(c1ccccc1)c1ccccn1)C(C)C (stereo not drawn) [Disopyramide]"
  Qualitative Label: "Criterion not met"

Confirm if Raw Signal reported for the compound CNC(=O)Oc1ccc2c(c1)[C@]1(C)CCN(C)[C@@H]1N2C [(-)-Physostigmine] is 50000 or above. Criterion met

Confirm if Raw Signal reported for the compound CCCn1c(=O)c2[nH]c(-c3ccc(OCC(=O)Nc4ccc(C#N)cc4)cc3)nc2n(CCC)c1=O [MRS 1754] is 50000 or above. Criterion met

Confirm if Raw Signal reported for the compound CC(N)(Cc1ccc(O)cc1)C(=O)O (racemic) [DL-alpha-Methyl-p-tyrosine] is 50000 or above. Criterion met

Confirm if Raw Signal reported for the compound O=C1c2c(O)ccc(O)c2C(=O)c2c(NCCNCCO)ccc(NCCNCCO)c21 [Mitoxantrone] is 50000 or above. Criterion not met

Confirm if Raw Signal reported for the compound Nn1nnc2ccccc21 [1-Aminobenzotriazole] is 50000 or above. Criterion met

Confirm if Raw Signal reported for the compound CC(=O)OCC1=C(C(=O)O)N2C(=O)[C@@H](NC(=O)CSc3ccncc3)[C@H]2SC1 [Cephapirin sodium] is 50000 or above. Criterion met

Confirm if Raw Signal reported for the compound COc1cc2c(CCNC(C)=O)c[nH]c2cc1O [6-Hydroxymelatonin] is 50000 or above. Criterion met

Confirm if Raw Signal reported for the compound CCCCNC(=O)NS(=O)(=O)c1ccc(C)cc1 [Tolbutamide] is 50000 or above. Criterion met

Confirm if Raw Signal reported for the compound CNC(=O)[C@H]1O[C@@H](n2cnc3c(N)ncnc32)[C@H](O)[C@@H]1O [5 -N-Methyl carboxamidoadenosine] is 50000 or above. Criterion met

Confirm if Raw Signal reported for the compound CN(N=O)c1ccc(O)c(O)c1 [Me-3,4-dephostatin] is 50000 or above. Criterion not met

Confirm if Raw Signal reported for the compound `Cl.NOCC(=O)O.NOCC(=O)O` is 50000 or above. Criterion met

Confirm if Raw Signal reported for the compound `CC[C@@H]1Cc2cc(O)ccc2C2=C1c1ccc(O)cc1C[C@H]2CC` is 50000 or above. Criterion met

Confirm if Raw Signal reported for the compound CC(C)NC[C@@H](O)COc1ccc(CC(N)=O)cc1 [R(+)-Atenolol] is 50000 or above. Criterion met

Confirm if Raw Signal reported for the compound Nc1ncnc2c1ncn2C1CCCO1 (stereo not drawn) [SQ 22536] is 50000 or above. Criterion met

Confirm if Raw Signal reported for the compound N#C/C(=C\c1ccc(O)c(O)c1)C(=O)NCCCNC(=O)/C(C#N)=C/c1ccc(O)c(O)c1 [Tyrphostin AG 537] is 50000 or above. Criterion not met

Confirm if Raw Signal reported for the compound CN1CCN(CC/C=C2/c3ccccc3Sc3ccc(S(=O)(=O)N(C)C)cc32)CC1.Cl [Thiothixene hydrochloride] is 50000 or above. Criterion met
